These data points were gathered from BigSolDB 2.1.

conditions: in ethyl acetate, 313.15 K

# Smiles text, solubility (mole fraction)
data = [
    ("CC1=C(/C=C/C(C)=C/C=C/C(C)=C/C=C/C=C(C)/C=C/C=C(C)/C=C/C2=C(C)C(=O)CCC2(C)C)C(C)(C)CCC1=O", "5.43e-05"),
]

====

details: in cyclohexane, 343.15 K
Reported property: solubility (mole fraction)

# Smiles text, Reading
rows = [
    ("CC1=C(/C=C/C(C)=C/C=C/C(C)=C/C=C/C=C(C)/C=C/C=C(C)/C=C/C2=C(C)C(=O)CCC2(C)C)C(C)(C)CCC1=O", "2.06e-05"),
]

====

details: in toluene, 333.15 K

# Smiles text, solubility (mole fraction)
measured = [
    ("CC1=C(/C=C/C(C)=C/C=C/C(C)=C/C=C/C=C(C)/C=C/C=C(C)/C=C/C2=C(C)C(=O)CCC2(C)C)C(C)(C)CCC1=O", 0.000202),
]
